# growth inhibition per entry
Tested on: DIPGX7 (H3.3 K27M diffuse intrinsic pontine glioma line)
Test: growth inhibition (% activity, log2 RLU normalised to DMSO / staurosporine); higher = more growth inhibition
Settings: 33 µM
Return type: number; implicit unit %.

{"smiles": "CC(C)(O/N=C(\\C(=O)N[C@@H]1C(=O)N2C(C(=O)[O-])=C(C[n+]3ccccc3)CS[C@H]12)c1csc(N)n1)C(=O)O", "assayed system": "DIPGX7", "measurement units": "%", "growth inhibition": 2.31}
{"smiles": "CCCC(=O)O[C@]1(C(=O)COC(C)=O)CC[C@H]2[C@@H]3C[C@H](F)C4=CC(=O)C=C[C@]4(C)[C@@]3(F)[C@@H](O)C[C@@]21C", "assayed system": "DIPGX7", "measurement units": "%", "growth inhibition": -0.393}
{"smiles": "CCOC(=O)c1c(CSc2ccccc2)n(C)c2cc(Br)c(O)c(CN(C)C)c12", "assayed system": "DIPGX7", "measurement units": "%", "growth inhibition": 3.04}
{"smiles": "NC(N)=Nc1nc(CSCC/C(N)=N/S(N)(=O)=O)cs1", "assayed system": "DIPGX7", "measurement units": "%", "growth inhibition": -1.85}
{"smiles": "O=C(Nc1cccc2c(=O)cc(-c3nnn[nH]3)oc12)c1ccc(OCCCCc2ccccc2)cc1", "assayed system": "DIPGX7", "measurement units": "%", "growth inhibition": 2.31}

For N[C@H](C(=O)O)[C@H](O)c1ccc(O)c(O)c1 the compound record lists growth inhibition as -1.18

Sure, the documented growth inhibition for O=C(NCCN1CCOCC1)c1ccc(Cl)cc1 is -0.129

compound CCCS(=O)(=O)Nc1ccc(F)c(C(=O)c2c[nH]c3ncc(-c4ccc(Cl)cc4)cc23)c1F , growth inhibition observed: -0.987

Noted for Cc1ncc([N+](=O)[O-])n1CCO : its growth inhibition reads -1.15

---

Tested on: DIPGX29 (H3.3 K27M diffuse intrinsic pontine glioma line)
Experiment: growth inhibition (% activity, log2 RLU normalised to DMSO / staurosporine); higher = more growth inhibition
Details: 33 µM
value kind: growth inhibition (%)
Report as a plain number; the unit % is understood.

See these solved cases before continuing.
{"compound": "C[C@@H]1CN(c2c(F)c(N)c3c(=O)c(C(=O)O)cn(C4CC4)c3c2F)C[C@H](C)N1", "assayed system": "DIPGX29", "measurement units": "%", "growth inhibition": 0.694}
{"compound": "CN1C(C(=O)Nc2ccccn2)=C(O)c2sccc2S1(=O)=O", "assayed system": "DIPGX29", "measurement units": "%", "growth inhibition": -1.4}
{"compound": "Cc1cnc(C(=O)O)c[n+]1[O-]", "assayed system": "DIPGX29", "measurement units": "%", "growth inhibition": 1.49}
{"compound": "O=c1ccn([C@@H]2O[C@H](CO)[C@@H](O)[C@H]2O)c(=O)[nH]1", "assayed system": "DIPGX29", "measurement units": "%", "growth inhibition": -0.716}
{"compound": "Clc1cccc(Cl)c1NC1=NCCN1", "assayed system": "DIPGX29", "measurement units": "%", "growth inhibition": 1.49}
{"compound": "O=c1[nH]c(=O)n([C@H]2C[C@H](O)[C@@H](CO)O2)cc1C(F)(F)F", "assayed system": "DIPGX29", "measurement units": "%", "growth inhibition": -1.08}
{"compound": "N=C(N)N/N=C/c1c(Cl)cccc1Cl", "assayed system": "DIPGX29", "measurement units": "%", "growth inhibition": 1.41}
{"compound": "CCOC(=O)N1CCC(=C2c3ccc(Cl)cc3CCc3cccnc32)CC1", "assayed system": "DIPGX29", "measurement units": "%", "growth inhibition": 2.36}

Per the reported DIPGX29 data, CCC[C@H](NC(=O)[C@@H]1[C@H]2CCC[C@H]2CN1C(=O)[C@@H](NC(=O)[C@@H](NC(=O)c1cnccn1)C1CCCCC1)C(C)(C)C)C(=O)C(=O)NC1CC1 has growth inhibition of 0.654

Tested on DIPGX29, the item CCn1cc(C(=O)O)c(=O)c2cnc(N3CCCC3)nc21 showed growth inhibition equal to -2.15

---

System: HNSC
Assay: growth inhibition (% activity, log2 RLU normalised to DMSO / staurosporine); higher = more growth inhibition
Conditions: 33 µM
In this section, each of the molecules is paired with its reported growth inhibition.
Use % as the unit, but write only the number.

Consider the following illustrative entries.
{"molecule": "CCN1CC(CCN2CCOCC2)C(c2ccccc2)(c2ccccc2)C1=O (centres undefined)", "growth inhibition / %": 6.96}
{"molecule": "CC(C)C[C@H](NC(=O)[C@H](O)[C@H](N)Cc1ccccc1)C(=O)O", "growth inhibition / %": 0.429}
{"molecule": "Cn1ccnc1S", "growth inhibition / %": -4.2}
{"molecule": "O=P(O)(O)C(Cl)(Cl)P(=O)(O)O", "growth inhibition / %": 0.239}
{"molecule": "CC[C@H]1OC(=O)[C@H](C)[C@@H](O[C@H]2C[C@@](C)(OC)[C@@H](O)[C@H](C)O2)[C@H](C)[C@@H](O[C@@H]2O[C@H](C)C[C@H](N(C)C)[C@H]2O)[C@](C)(O)C[C@@H](C)/C(=N\\OCOCCOC)[C@H](C)[C@@H](O)[C@]1(C)O", "growth inhibition / %": -0.847}
{"molecule": "COc1ccc(CNc2nc(N3CCC[C@H]3CO)ncc2C(=O)NCc2ncccn2)cc1Cl", "growth inhibition / %": -2.71}
{"molecule": "CCCNC(C)C(=O)Nc1ccccc1C (centres undefined)", "growth inhibition / %": -2.37}
{"molecule": "CCCCc1nc(Cl)c(CO)n1Cc1ccc(-c2ccccc2-c2nnn[nH]2)cc1", "growth inhibition / %": 2.21}

From here, focus on the item given below.
growth inhibition reading for CC1(C)[C@@H](OC(=O)CCC(=O)O)CC[C@]2(C)[C@H]3C(=O)C=C4[C@@H]5C[C@@](C)(C(=O)O)CC[C@]5(C)CC[C@@]4(C)[C@]3(C)CC[C@@H]12 : 0.455

---

System: DIPGX29
Assay: growth inhibition (% activity, log2 RLU normalised to DMSO / staurosporine); higher = more growth inhibition
Conditions: 33 µM
value kind: growth inhibition (%)
Entry rule: numbers only, all in %.

{"compound": "CC(=O)O[C@H]1C(=O)[C@@]2(C)[C@H]([C@H](OC(=O)c3ccccc3)[C@]3(O)C[C@H](OC(=O)[C@H](O)[C@@H](NC(=O)c4ccccc4)c4ccccc4)C(C)=C1C3(C)C)[C@]1(OC(C)=O)CO[C@@H]1C[C@@H]2O", "assayed system": "DIPGX29", "growth inhibition, %": 9.71}
{"compound": "C[C@]12CCC3=C4CCC(=O)C=C4CC[C@H]3[C@@H]1CC[C@@]2(O)CC#N", "assayed system": "DIPGX29", "growth inhibition, %": 1.43}
{"compound": "CNCC[C@H](Oc1cccc2ccccc12)c1cccs1", "assayed system": "DIPGX29", "growth inhibition, %": 3.5}

What the record says about Nc1nc(=O)c2c([nH]1)NCC(CNc1ccc(C(=O)N[C@@H](CCC(=O)O)C(=O)O)cc1)N2C=O (stereo not given in full) : growth inhibition is -0.552

The measured growth inhibition associated with COC(=O)C1=CO[C@@H](O[C@@H]2O[C@H](CO)[C@@H](O)[C@H](O)[C@H]2O)[C@@H]2C(CO)=CC[C@H]12 reads -1.79

---

Tested on: DIPGX37 (H3.3 K27M diffuse intrinsic pontine glioma line)
Assay: growth inhibition (% activity, log2 RLU normalised to DMSO / staurosporine); higher = more growth inhibition
Details: 33 µM
Entries and their growth inhibition
Hi! Could you send only the number? It should be in %, unit omitted.

See these solved cases before continuing.
{"molecule": "CN1CC2c3ccccc3Oc3ccc(Cl)cc3C2C1 (configuration not stated)", "measurement units": "%", "growth inhibition": -5.66}
{"molecule": "N#CC[C@H](C1CCCC1)n1cc(-c2ncnc3[nH]ccc23)cn1", "measurement units": "%", "growth inhibition": -0.293}
{"molecule": "CCc1oc2ccccc2c1C(=O)c1cc(Br)c(O)c(Br)c1", "measurement units": "%", "growth inhibition": 0.798}
{"molecule": "CCCNC(C)C(=O)Nc1ccccc1C (configuration not stated)", "measurement units": "%", "growth inhibition": 0.68}
{"molecule": "NCCCC[C@H](N[C@@H](CCc1ccccc1)C(=O)O)C(=O)N1CCC[C@H]1C(=O)O", "measurement units": "%", "growth inhibition": -1.25}
{"molecule": "CCOC(=O)N1CCC(=C2c3ccc(Cl)cc3CCc3cccnc32)CC1", "measurement units": "%", "growth inhibition": 3.66}
{"molecule": "NC[C@@H]1O[C@H](O[C@H]2[C@@H](O)[C@H](O[C@@H]3[C@@H](O)[C@H](N)C[C@H](N)[C@H]3O[C@H]3O[C@H](CN)[C@@H](O)[C@H](O)[C@H]3N)O[C@@H]2CO)[C@H](N)[C@@H](O)[C@@H]1O", "measurement units": "%", "growth inhibition": 0.68}
{"molecule": "CN1CCC[C@H]1c1cccnc1", "measurement units": "%", "growth inhibition": 0.939}
{"molecule": "CSc1nc2cc(Cl)c(Oc3cccc(Cl)c3Cl)cc2[nH]1", "measurement units": "%", "growth inhibition": -0.121}
{"molecule": "CCCN1CCCC[C@H]1C(=O)Nc1c(C)cccc1C", "measurement units": "%", "growth inhibition": 1.83}

Result for COC(=O)C1=C(C)NC(C)=C(C(=O)OC(C)C)C1c1cccc2nonc12 (configuration not stated) , tested on DIPGX37, growth inhibition: -3.83

Form: item CN(C)CCCC1(c2ccc(F)cc2)OCc2cc(C#N)ccc21 (configuration not stated) ; test system DIPGX37; growth inhibition: 3.31

Record CCC(C)n1ncn(-c2ccc(N3CCN(c4ccc(OCC5COC(Cn6cncn6)(c6ccc(Cl)cc6Cl)O5)cc4)CC3)cc2)c1=O (configuration not stated) has DIPGX37 growth inhibition equal to 1.27

Assay DIPGX37, sample COc1c(N2CCNC(C)C2)c(F)cc2c(=O)c(C(=O)O)cn(C3CC3)c12 (configuration not stated) , growth inhibition read: -1.73

Summary line: CCCc1cc(=O)[nH]c(=S)[nH]1 , DIPGX37, reported growth inhibition = 1.03
